Ref: patent US20250073302A1

targetEntity: 20S core particle (CP) proteasome
assayExplanation: cell-based or functional assay
Non-standard residues stand in square brackets, D forms with d. Bpa = N[C@@H](Cc1ccc(C(=O)c2ccccc2)cc1)C(=O)O; Phe(4-F) = N[C@@H](Cc1ccc(F)cc1)C(=O)O
TAS-1 (percent stimulation of 20S CP) for assorted binders

In the examples that follow, each entry is paired with its recorded TAS-1 (percent stimulation of 20S CP).
# binder, TAS-1 (percent stimulation of 20S CP)
data = [
    ("cyclo([dL]F[dF]K[dA]) (SMILES CC(C)C[C@H]1NC(=O)[C@@H](C)NC(=O)[C@H](CCCCN)NC(=O)[C@@H](Cc2ccccc2)NC(=O)[C@H](Cc2ccccc2)NC1=O) [CyPPS25]", "297 % of DMSO"),
    ("cyclo(T[dL][Bpa][dF]R[dA]) (SMILES CC(C)C[C@H]1NC(=O)[C@H]([C@@H](C)O)NC(=O)[C@@H](C)NC(=O)[C@H](CCCNC(=N)N)NC(=O)[C@@H](Cc2ccccc2)NC(=O)[C@H](Cc2ccc(C(=O)c3ccccc3)cc2)NC1=O) [CyPPS32]", "242 % of DMSO"),
    ("cyclo(T[dL][Phe(4-F)][dF]R[dA]) (SMILES CC(C)C[C@H]1NC(=O)[C@H]([C@@H](C)O)NC(=O)[C@@H](C)NC(=O)[C@H](CCCNC(=N)N)NC(=O)[C@@H](Cc2ccccc2)NC(=O)[C@H](Cc2ccc(F)cc2)NC1=O) [CyPPS15]", "280 % of DMSO"),
    ("cyclo(A[dA]F[dF]A[dR]) (SMILES C[C@@H]1NC(=O)[C@@H](CCCNC(=N)N)NC(=O)[C@H](C)NC(=O)[C@@H](Cc2ccccc2)NC(=O)[C@H](Cc2ccccc2)NC(=O)[C@@H](C)NC1=O) [CyPPS36]", "185 % of DMSO"),
]

Shift focus to the following entry.
Answer with reported TAS-1 (percent stimulation of 20S CP) of cyclo(K[dL]F[dF]R[dA]) (SMILES CC(C)C[C@H]1NC(=O)[C@H](CCCCN)NC(=O)[C@@H](C)NC(=O)[C@H](CCCNC(=N)N)NC(=O)[C@@H](Cc2ccccc2)NC(=O)[C@H](Cc2ccccc2)NC1=O) [CyPPS7]
226 % of DMSO
